- test-description: growth suppression of PTEN-deleted HCT116, pilot screen, cell-based, HCT116 clonal line, CellTiter-Glo (AID 824)
- study-conditions: 60 h, at 10 µM
Records with an inconclusive call do not appear. Activity calls are given as the source filed them.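 The calls were made as follows: active = viability at or below 27.92% in each of two runs, the all-compound median minus 4 SD; inconclusive = no clear call, values can overlap the other calls; inactive = the rest.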
Possible outcomes: True for active, False for inactive

compound | assigned-category
COc1ccc(-c2n[nH]c(C(F)(F)F)c2-c2cc3ccccc3o2)c(O)c1 | False
CC(C)c1ccc(C2CC(=O)N3CN(C)CSC3=C2C#N)cc1 (stereo not drawn) | False
CC1CCCN(C(c2ccccc2)c2sc3ncnn3c2O)C1 (stereo not drawn) | False
Cc1cc(C(=O)NCC(c2ccco2)N(C)C)no1 (stereo not drawn) | False
Cc1cc(S(=O)(=O)N2CCN(Cc3ccc4c(c3)OCO4)CC2)cc(C)c1N1CCCC1=O | False
CCCOC(=O)c1ccc(NC(=O)C2C3C=CC(O3)C2C(=O)O)cc1 (stereo not drawn) | False
CCOc1ccccc1N1CCN(C(=O)c2cc(C)oc2C)CC1 | False
O=S(=O)(c1cccc(-c2nnc(-c3cccnc3)o2)c1)N1CCCCC1 | False
CCNc1cc2oc(=O)c(CN3CCOCC3)c(C)c2cc1C | False
Cc1cccc(NC(=O)CS(=O)(=O)c2cn(C)c3ccccc23)c1C | False
COc1ccc(N(CC(=O)NCc2ccccc2OC)S(=O)(=O)c2c(C)nn(C)c2C)cc1 | False
Cc1ccccc1C(=O)N1CCC(C(=O)Nc2cccc(F)c2)CC1 | False
O=C(Nc1cccnc1)c1cc(-c2ccc(Br)cc2)on1 | False
c1cn2cc(-c3ccc4c(c3)OCO4)nc2s1 | False
CC1CCCCN1Cc1nc2c(c(=O)n(C)c(=O)n2C)n1Cc1cccc2ccccc12 (stereo not drawn) | False
COc1cccc(-c2nnc3n2N=C(C(C)(C)C)CS3)c1 | True
CC1CCC(NC(=O)CC2Oc3ccccc3NC2=O)CC1 (stereo not drawn) | False
Cc1ccc(Nc2nc(C3CC3)cs2)cc1 | False
CCCOc1ccc(S(=O)(=O)NCc2ccc(OC)cc2)cc1 | False
CC(C)Cn1c(SCC(=O)NC2CCCc3ccccc32)nc(O)cc1=O (stereo not drawn) | False
O=C(NCCOC(=O)c1ccncc1)c1ccccc1 | False
C=CCNC(=O)C1CC(=O)N(c2ccc(C)cc2)C1 (stereo not drawn) | False
CCOc1ccc(C2CC(c3cccc(Cl)c3)n3nc(N)nc3N2)cc1 (stereo not drawn) | False
CCCCN1C(=O)C(O)(CC(=O)c2ccco2)c2cc(Br)ccc21 (stereo not drawn) | True
COc1ccc(C2C(C(=O)NC(C)C)c3ccccc3C(=O)N2C)cc1OC (stereo not drawn) | False
CCCCS(=O)CC(CS(=O)CCCC)OC(=O)c1ccc(C)cc1 (stereo not drawn) | False
CC(=O)N1CCC(Nc2ccc(C)cc2)CC1 | False
CC1(C)NC(=O)N(CC(O)COc2ccc(N3C(=O)c4ccccc4C3=O)cc2)C1=O (stereo not drawn) | False
O=C1C(=C2CCCCC2)SC(=S)N1Cc1ccco1 | False
COc1cc2c(C(=O)NCc3ccccn3)cn(C)c(=O)c2cc1OC | False
COc1ccc(-c2noc(Cc3ccccc3OC)n2)cc1 | False
CCCNc1nc2c(c(=O)[nH]c(=O)n2C)n1CCc1ccccc1 | False
O=C1CC(c2ccco2)CC(O)=C1C=NCC1CCNCC1 (stereo not drawn) | False
Cc1nnc(NC(=O)CCCCCN2C(=O)C3C4C=CC(C4)C3C2=O)s1 (stereo not drawn) | False
CC(C)c1nc(SCC(=O)Nc2ccc3c(c2)OCCO3)c2c(=O)n(C)c(=O)n(C)c2n1 | False
CCOC(=O)c1nnn(-c2nonc2N)c1-c1ccccc1 | False
O=C1C2CCCN2C(c2ccc(Br)cc2)N1c1ccc(F)cc1 (stereo not drawn) | False
CCN(CC)c1ccc(/C=N/n2c(C)cc(C)cc2=O)cc1 | False
O=C1c2oc3ccc(F)cc3c(=O)c2C(c2cccc(O)c2)N1CCCN1CCOCC1 (stereo not drawn) | False
O=C(C1CCCCC1)N1CCN(c2ncccn2)CC1 | False
Cc1ccc(-c2nn(C)c(=O)c3ccccc23)cc1CNC(=O)c1ccco1 | False
N#CN=C1SCCS1 | False
Cn1c(N)c(C(=O)COC(=O)Cc2ccsc2)c(=O)n(C)c1=O | False

Data provenance is PubChem BioAssay.
